The values you see were collected from patent US12186425B2.

# Protocol summary: Solubility of cystine
# Format: physicochemical
# Settings: phosphate buffered saline, aqueous buffer; read-out: saturated solution of cystine
Parameter: solubility thermodynamic

Looking for the measured solubility thermodynamic of N[C@@H](CSSC[C@H](N)C(=O)O)C(=O)O , can you help?
110 µg/mL
